Please provide measured pest or weed control at 560 ppm for the entries that follow.
System: velvetleaf (Abutilon theophrasti)
Experiment: Preemergence herbicidal activity
Format: in vivo
Settings: Abutilon theophrasti, 504 h; Table 6 (headed Post-emergent; text: preemergence); rate 560 ppm; after 3 weeks; read-out: % Control ABUTH
Description: Seeds of the desired test plant species were planted in a soil matrix prepared by mixing a loam soil (43 percent silt, 19 percent clay, and 38 percent sand, with a pH of about 8.1 and an organic matter content of bout 1.5 percent) and sand in a 70 to 30 ratio. The soil matrix was contained in plastic pots with a surface area of 113 square centimeters. When required to ensure good germination and healthy plants. a fungicide treatment and/or other chemical or physical treatment was applied. […]
Kindly answer with a numeric value in %, unit omitted.

Request: Lab note: need pest or weed control at 560 ppm for `CNc1cc(Cl)nc(C(=O)O)c1Cl` on velvetleaf (Abutilon theophrasti), anyone have it?
Result: 100

Request: Lab note: need pest or weed control at 560 ppm for `COc1c(C(=O)O)nc(Br)c(Cl)c1N` on velvetleaf (Abutilon theophrasti), anyone have it?
Result: 100

Request: Lab note: need pest or weed control at 560 ppm for `CC(C)COc1nc(C(=O)O)c(Cl)c(N)c1Cl` on velvetleaf (Abutilon theophrasti), anyone have it?
Result: 40

Request: Lab note: need pest or weed control at 560 ppm for `CN(C)c1cc(Cl)nc(C(=O)O)c1Cl` on velvetleaf (Abutilon theophrasti), anyone have it?
Result: 98

Request: Lab note: need pest or weed control at 560 ppm for `O=C(O)c1nc(Cl)cc([N+](=O)[O-])c1Cl` on velvetleaf (Abutilon theophrasti), anyone have it?
Result: 100

Request: Lab note: need pest or weed control at 560 ppm for `O=C(O)c1nc(Cl)cc(N2CCCC2)c1Cl` on velvetleaf (Abutilon theophrasti), anyone have it?
Result: 95

Request: Lab note: need pest or weed control at 560 ppm for `Nc1cc(Br)nc(C(=O)O)c1Br` on velvetleaf (Abutilon theophrasti), anyone have it?
Result: 100

Request: Lab note: need pest or weed control at 560 ppm for `CCNc1cc(Cl)nc(C(=O)O)c1Cl` on velvetleaf (Abutilon theophrasti), anyone have it?
Result: 100
